- assayed-system: aldose reductase (Bos taurus, UniProt P16116)
- Construct: partially purified aldose reductase enzyme obtained from calf lens; from tissue; host or cells: calf lens
- assay-explanation: Inhibition of aldose reductase enzyme activity (procedure of U.S. Pat. No. 3,821,383, based on Hayman et al.)
- Assay type: biochemical
- condition-info: 10^-4 M; partially purified aldose reductase from calf lens
Where a name gives a salt, the structure may show the parent alone.
Reported inhibition at 100 µM is given for each of the following compounds.

{"columns": ["compound", "inhibition at 100 µM"],
 "data": [
  ["Cc1c(CC(=O)O)c2ccccc2c(=O)n1OCc1ccc(Cl)c(Cl)c1", "90%"],
  ["Cc1c(CC(=O)O)c2ccccc2c(=O)n1Cc1ccc(Cl)c(Cl)c1", "27%"],
  ["Cc1nc(OCc2ccc(Cl)c(Cl)c2)c2ccccc2c1CC(=O)O", "83%"],
  ["Cc1nc(Oc2ccc(Cl)cc2)c2ccccc2c1CC(=O)O", "95%"],
  ["Cc1nc(N(C)Cc2ccc(Cl)cc2)c2ccccc2c1CC(=O)O [Example 10, Acetic Acid Hydrochloride]", "99%"]
]}
